Test system: NCI-H1792
Assay: relative viability (nuclei count vs DMSO), 5 days (fraction); higher = more cells survive
Conditions: first compound 2.53 µM
In this section we review reported relative viability values for a set of compounds.

These solved cases illustrate the format of a correct answer.
Oc1nc(-c2ccc(C(F)(F)F)cc2)nc2c1CSCC2 [XAV939] + O=C(c1cc(Cc2n[nH]c(=O)c3ccccc23)ccc1F)N1CCN(C(=O)C2CC2)CC1 [Olaparib] (partner 8 µM)
0.268
Oc1nc(-c2ccc(C(F)(F)F)cc2)nc2c1CSCC2 [XAV939] + CS(=O)(=O)CCNCc1ccc(-c2ccc3ncnc(Nc4ccc(OCc5cccc(F)c5)c(Cl)c4)c3c2)o1 [Lapatinib] (partner 2 µM)
0.806
C=C1C(=O)O[C@@H](CCCCCCCC)[C@@H]1C(=O)O [C-75] + Nc1nc2[nH]cc(CCc3ccc(C(=O)N[C@@H](CCC(=O)O)C(=O)O)cc3)c2c(=O)[nH]1 [Pemetrexed] (partner 0.2 µM)
0.481
C=C1C(=O)O[C@@H](CCCCCCCC)[C@@H]1C(=O)O [C-75] + N=C(N)NC(=N)NCCc1ccccc1 [Phenformin] (partner 250 µM)
0.113
C=C1C(=O)O[C@@H](CCCCCCCC)[C@@H]1C(=O)O [C-75] + Nc1ncn([C@H]2C[C@H](O)[C@@H](CO)O2)c(=O)n1 [Decitabine] (partner 2 µM)
0.494

The compound identified as Oc1nc(-c2ccc(C(F)(F)F)cc2)nc2c1CSCC2 [XAV939] + C[C@]1(O)C[C@@H](c2nc(-c3ccc4ccc(-c5ccccc5)nc4c3)c3c(N)nccn32)C1 [Linsitinib] (partner 1 µM) registered its relative viability at 0.453

The compound identified as Oc1nc(-c2ccc(C(F)(F)F)cc2)nc2c1CSCC2 [XAV939] + Cc1nc(NC(=O)N2CCC[C@H]2C(N)=O)sc1-c1ccnc(C(C)(C)C(F)(F)F)c1 [Alpelisib] (partner 2 µM) registered its relative viability at 0.594
